assayedSystem: MSK1 (Homo sapiens)
Sequence (O75582 whole entry, species assumed): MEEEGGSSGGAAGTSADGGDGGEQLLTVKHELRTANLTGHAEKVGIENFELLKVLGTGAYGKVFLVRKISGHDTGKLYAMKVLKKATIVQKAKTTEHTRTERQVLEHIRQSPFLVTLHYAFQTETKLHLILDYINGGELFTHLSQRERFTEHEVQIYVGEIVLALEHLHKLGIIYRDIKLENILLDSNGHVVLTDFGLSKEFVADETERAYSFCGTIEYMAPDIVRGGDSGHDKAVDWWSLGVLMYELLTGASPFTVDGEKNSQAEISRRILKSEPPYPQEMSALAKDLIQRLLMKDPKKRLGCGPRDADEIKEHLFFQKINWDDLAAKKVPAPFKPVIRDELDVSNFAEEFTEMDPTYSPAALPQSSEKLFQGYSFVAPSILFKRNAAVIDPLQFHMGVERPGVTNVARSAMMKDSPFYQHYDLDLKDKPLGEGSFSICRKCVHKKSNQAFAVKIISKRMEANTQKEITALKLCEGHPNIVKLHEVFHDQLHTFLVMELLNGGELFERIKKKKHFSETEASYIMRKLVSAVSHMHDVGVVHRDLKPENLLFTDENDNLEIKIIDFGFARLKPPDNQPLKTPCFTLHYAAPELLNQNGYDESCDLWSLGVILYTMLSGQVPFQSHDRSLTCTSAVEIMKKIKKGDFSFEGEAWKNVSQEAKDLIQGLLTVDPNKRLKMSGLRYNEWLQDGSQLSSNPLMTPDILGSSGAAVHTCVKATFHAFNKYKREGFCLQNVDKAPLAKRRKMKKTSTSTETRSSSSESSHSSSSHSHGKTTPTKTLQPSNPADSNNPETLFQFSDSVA
testSummary: Kinase profiling MSK1
Format: biochemical
particulars: 100 micromolar inhibitor concentration; 100 is no change
Hi, to clarify the labels: Y covers residual kinase activity, MSK1 from 90 upward, N covers anything below 90.

[[record]]
compound = "O=C(Nc1nc2ccc(O)cc2s1)c1cccnc1 [Compound 08-44]"
group = "N"

[[record]]
compound = "COC(=O)c1cccc(C(=O)Nc2nc3ccc(F)cc3s2)c1 [Compound 03-110]"
group = "N"

[[record]]
compound = "COc1ccc2sc(NC(=O)c3cccc(C(N)=O)c3)nc2c1 [Compound 03-113]"
group = "N"

[[record]]
compound = "O=C(Nc1nc2cc(O)ccc2s1)c1ccccc1 [Compound 03-102]"
group = "N"

[[record]]
compound = "O=C(Nc1nc2cc(O)ccc2s1)c1ccncc1 [Compound 03-11]"
group = "Y"


# input Is it the case that O=C(Nc1nc2ccc(F)cc2s1)c1ccccc1 [Compound 03-92] has residual kinase activity, MSK1 reaching or exceeding 90?
# output N

# input Is it the case that O=C(Nc1nc2ccc(O)cc2s1)c1ccccc1 [Compound 03-60] has residual kinase activity, MSK1 reaching or exceeding 90?
# output N

# input Is it the case that COc1ccc2sc(NC(=O)c3ccccc3)nc2c1 [Compound 03-95] has residual kinase activity, MSK1 reaching or exceeding 90?
# output N

# input Is it the case that CC(=O)Nc1nc2cc(C)ccc2s1 [Compound 03-76] has residual kinase activity, MSK1 reaching or exceeding 90?
# output N

# input Is it the case that N#Cc1ccc2nc(NC(=O)c3ccccc3)sc2c1 [Compound 03-106] has residual kinase activity, MSK1 reaching or exceeding 90?
# output N

# input Is it the case that O=C(Nc1nc2ccc(C(F)(F)F)cc2s1)c1ccccc1 [Compound 03-99] has residual kinase activity, MSK1 reaching or exceeding 90?
# output N

# input Is it the case that CC(=O)Nc1nc2ccccc2s1 [Compound 03-32] has residual kinase activity, MSK1 reaching or exceeding 90?
# output Y

# input Is it the case that O=C(Nc1nc2cc(O)ccc2s1)c1ccccn1 [Compound 03-13] has residual kinase activity, MSK1 reaching or exceeding 90?
# output Y

---

assayedSystem: EIF2AK3 (Homo sapiens)
Sequence (Q9NZJ5 30-1116, species assumed): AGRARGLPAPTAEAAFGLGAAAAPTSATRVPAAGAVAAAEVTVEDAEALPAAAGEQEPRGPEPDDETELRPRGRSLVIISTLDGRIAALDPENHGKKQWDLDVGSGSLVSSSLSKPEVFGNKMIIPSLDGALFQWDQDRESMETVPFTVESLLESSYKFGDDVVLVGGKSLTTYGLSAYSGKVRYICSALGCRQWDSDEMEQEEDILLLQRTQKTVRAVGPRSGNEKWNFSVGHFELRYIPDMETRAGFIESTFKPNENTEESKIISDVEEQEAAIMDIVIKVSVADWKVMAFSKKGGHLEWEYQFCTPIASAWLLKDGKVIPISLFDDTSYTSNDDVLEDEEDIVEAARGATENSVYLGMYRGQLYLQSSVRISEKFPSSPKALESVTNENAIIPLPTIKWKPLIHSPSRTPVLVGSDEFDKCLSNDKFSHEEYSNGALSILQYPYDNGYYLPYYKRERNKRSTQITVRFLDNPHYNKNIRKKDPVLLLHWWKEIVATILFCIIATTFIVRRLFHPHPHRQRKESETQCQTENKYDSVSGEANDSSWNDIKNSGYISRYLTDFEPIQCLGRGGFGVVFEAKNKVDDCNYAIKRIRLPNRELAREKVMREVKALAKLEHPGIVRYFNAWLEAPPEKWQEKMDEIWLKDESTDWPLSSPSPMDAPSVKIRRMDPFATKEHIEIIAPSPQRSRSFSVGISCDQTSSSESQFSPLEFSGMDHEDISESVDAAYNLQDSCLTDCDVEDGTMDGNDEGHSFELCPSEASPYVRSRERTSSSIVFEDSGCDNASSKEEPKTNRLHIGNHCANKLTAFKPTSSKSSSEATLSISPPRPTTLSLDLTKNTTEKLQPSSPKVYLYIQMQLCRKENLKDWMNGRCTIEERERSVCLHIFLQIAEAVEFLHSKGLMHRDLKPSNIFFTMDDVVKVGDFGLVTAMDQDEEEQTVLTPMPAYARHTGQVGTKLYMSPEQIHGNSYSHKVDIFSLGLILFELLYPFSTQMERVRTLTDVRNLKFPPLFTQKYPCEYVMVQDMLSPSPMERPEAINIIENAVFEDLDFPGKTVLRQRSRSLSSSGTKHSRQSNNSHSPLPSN
testSummary: Kinase profiling EIF2AK3
Format: biochemical
particulars: 100 micromolar inhibitor concentration; 100 is no change
reportedProperty: residual kinase activity, EIF2AK3
// response body must contain only the number

Recorded residual kinase activity, EIF2AK3, per entry:
[[record]]
compound = "O=C(Nc1nc2cc(O)ccc2s1)c1cccnc1 [Compound 03-33]"
testresult = 87

[[record]]
compound = "O=C(Nc1nc2ccc(O)cc2s1)c1ccccn1 [Compound 03-12]"
testresult = 73

[[record]]
compound = "CC(=O)Nc1nc2cc(C)ccc2s1 [Compound 03-76]"
testresult = 97

[[record]]
compound = "O=C(Nc1nc2ccc(O)cc2s1)c1ccncc1 [Compound 08-42]"
testresult = 59

[[record]]
compound = "O=C(Nc1nc2ccc(O)cc2s1)c1ccccc1 [Compound 03-60]"
testresult = 45

[[record]]
compound = "CC(=O)Nc1nc2ccccc2s1 [Compound 03-32]"
testresult = 104

[[record]]
compound = "O=C(Nc1nc2cc(O)ccc2s1)c1ccccn1 [Compound 03-13]"
testresult = 89

[[record]]
compound = "O=C(Nc1nc2cc(O)ccc2s1)c1ccncc1 [Compound 03-11]"
testresult = 65


# input What value of residual kinase activity, EIF2AK3 has been reported for the following compound? O=C(Nc1nc2ccc(O)cc2s1)c1cccnc1 [Compound 08-44]
# output 51

---

assayedSystem: p38g MAPK (Homo sapiens)
Sequence (P53778 whole entry): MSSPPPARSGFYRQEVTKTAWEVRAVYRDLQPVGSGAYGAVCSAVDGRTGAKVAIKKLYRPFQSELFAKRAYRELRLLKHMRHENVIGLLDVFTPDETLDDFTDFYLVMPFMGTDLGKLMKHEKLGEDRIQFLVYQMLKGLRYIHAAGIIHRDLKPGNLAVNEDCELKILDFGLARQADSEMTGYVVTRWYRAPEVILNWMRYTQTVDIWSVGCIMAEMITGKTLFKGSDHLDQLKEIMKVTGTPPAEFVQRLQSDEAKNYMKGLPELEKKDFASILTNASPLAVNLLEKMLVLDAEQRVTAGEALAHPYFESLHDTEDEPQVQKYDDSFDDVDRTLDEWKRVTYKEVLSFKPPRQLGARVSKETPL
testSummary: Kinase profiling p38g MAPK
Assay type: biochemical
particulars: 100 micromolar inhibitor concentration; 100 is no change
Entries and their measured residual kinase activity, p38g MAPK follow.
// response body must contain only the number

# input Report residual kinase activity, p38g MAPK for CC(=O)Nc1nc2ccccc2s1 tested on p38g MAPK (Homo sapiens).
# output 109

# input Report residual kinase activity, p38g MAPK for CC(=O)Nc1ccccc1C(=O)Nc1nc2ccc(O)cc2s1 tested on p38g MAPK (Homo sapiens).
# output 90

# input Report residual kinase activity, p38g MAPK for O=C(Nc1nc2ccc(O)cc2s1)c1ccncc1 tested on p38g MAPK (Homo sapiens).
# output 87

# input Report residual kinase activity, p38g MAPK for CC(=O)Nc1nc2cc(C)ccc2s1 tested on p38g MAPK (Homo sapiens).
# output 92

# input Report residual kinase activity, p38g MAPK for O=C(Nc1nc2ccc(O)cc2s1)c1ccccc1 tested on p38g MAPK (Homo sapiens).
# output 58

# input Report residual kinase activity, p38g MAPK for COc1ccc2sc(NC(=O)c3ccc(NC(C)=O)cc3)nc2c1 tested on p38g MAPK (Homo sapiens).
# output 121

# input Report residual kinase activity, p38g MAPK for COc1ccc2sc(NC(=O)c3cccc(NC(C)=O)c3)nc2c1 tested on p38g MAPK (Homo sapiens).
# output 80

# input Report residual kinase activity, p38g MAPK for CC(=O)Nc1ccc(C(=O)Nc2nc3cc(O)ccc3s2)cc1 tested on p38g MAPK (Homo sapiens).
# output 93

# input Report residual kinase activity, p38g MAPK for O=C(Nc1nc2cc(O)ccc2s1)c1cccnc1 tested on p38g MAPK (Homo sapiens).
# output 85

# input Report residual kinase activity, p38g MAPK for CC(=O)Nc1cccc(C(=O)Nc2nc3ccc(O)cc3s2)c1 tested on p38g MAPK (Homo sapiens).
# output 64

---

assayedSystem: MKK1 (Homo sapiens)
Sequence (Q02750 whole entry, species assumed): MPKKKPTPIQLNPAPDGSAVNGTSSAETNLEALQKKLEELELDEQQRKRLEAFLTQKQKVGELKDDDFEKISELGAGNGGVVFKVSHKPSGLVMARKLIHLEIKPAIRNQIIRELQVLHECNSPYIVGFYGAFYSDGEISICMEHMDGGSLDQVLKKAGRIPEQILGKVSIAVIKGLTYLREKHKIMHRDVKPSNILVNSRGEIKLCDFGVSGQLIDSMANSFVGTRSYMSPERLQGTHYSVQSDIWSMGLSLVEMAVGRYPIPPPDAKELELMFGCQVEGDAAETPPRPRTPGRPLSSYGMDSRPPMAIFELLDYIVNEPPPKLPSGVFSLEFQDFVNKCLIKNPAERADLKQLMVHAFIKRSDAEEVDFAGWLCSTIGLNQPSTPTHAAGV
testSummary: Kinase profiling MKK1
Type: biochemical
particulars: 100 micromolar inhibitor concentration; 100 is no change; read-out: residual kinase activity, MKK1
Text: Any value less that 25 is considered to be highly significant inhibition.
reportedProperty: remaining activity at 100 µM (%)
# value in %; strip the unit string

Recorded remaining activity at 100 µM, per entry:
[[record]]
molecule = "CC(=O)Nc1nc2ccc(C(F)(F)F)cc2s1 [Compound 01-90]"
reportedproperty = "remaining activity at 100 µM"
unitlabel = "%"
testresult = 80

[[record]]
molecule = "COc1ccc2sc(NC(C)=O)nc2c1 [Compound 03-21]"
reportedproperty = "remaining activity at 100 µM"
unitlabel = "%"
testresult = 64

[[record]]
molecule = "CC(=O)Nc1nc2ccc(O)cc2s1 [Compound 01-71]"
reportedproperty = "remaining activity at 100 µM"
unitlabel = "%"
testresult = 35


# input What value of remaining activity at 100 µM has been reported for the following molecule? CC(=O)Nc1nc2cc(C(F)(F)F)ccc2s1 [Compound 03-73]
# output 96

---

Entries and their measured remaining activity at 100 µM follow.
assayedSystem: UniProtKB P27448
Sequence (P27448 whole entry, species assumed): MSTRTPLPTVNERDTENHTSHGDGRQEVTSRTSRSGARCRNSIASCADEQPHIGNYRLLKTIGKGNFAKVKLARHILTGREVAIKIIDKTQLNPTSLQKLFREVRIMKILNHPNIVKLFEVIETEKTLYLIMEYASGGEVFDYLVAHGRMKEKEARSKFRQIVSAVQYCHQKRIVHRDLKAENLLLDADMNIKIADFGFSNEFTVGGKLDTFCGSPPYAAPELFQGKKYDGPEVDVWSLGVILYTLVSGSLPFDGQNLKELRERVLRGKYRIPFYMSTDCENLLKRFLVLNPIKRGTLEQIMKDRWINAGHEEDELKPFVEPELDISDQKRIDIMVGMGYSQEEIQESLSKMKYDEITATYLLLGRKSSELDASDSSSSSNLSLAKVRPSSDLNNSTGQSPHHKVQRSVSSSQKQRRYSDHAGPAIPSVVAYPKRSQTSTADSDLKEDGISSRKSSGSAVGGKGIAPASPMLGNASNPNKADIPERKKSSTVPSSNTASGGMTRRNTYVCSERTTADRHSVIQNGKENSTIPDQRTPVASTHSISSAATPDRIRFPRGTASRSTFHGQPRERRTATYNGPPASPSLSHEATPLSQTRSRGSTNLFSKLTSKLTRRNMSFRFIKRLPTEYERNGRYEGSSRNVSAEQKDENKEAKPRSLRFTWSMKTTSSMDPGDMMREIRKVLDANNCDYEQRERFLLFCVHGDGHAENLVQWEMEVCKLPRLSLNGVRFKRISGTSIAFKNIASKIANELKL
testSummary: Kinase profiling MARK3
Assay type: biochemical
particulars: 100 micromolar inhibitor concentration; 100 is no change; read-out: residual kinase activity, MARK3
# value in %; strip the unit string

[[record]]
querysmiles = "CC(=O)Nc1nc2ccc(C(F)(F)F)cc2s1"
testresult = 61


# input What value of remaining activity at 100 µM has been reported for the following compound? CC(=O)Nc1nc2ccc(C#N)cc2s1
# output 50

# input What value of remaining activity at 100 µM has been reported for the following compound? CC(=O)Nc1nc2cc(C(F)(F)F)ccc2s1
# output 63

# input What value of remaining activity at 100 µM has been reported for the following compound? CC(=O)Nc1nc2cc(F)ccc2s1
# output 58

# input What value of remaining activity at 100 µM has been reported for the following compound? COc1ccc2sc(NC(C)=O)nc2c1
# output 72

# input What value of remaining activity at 100 µM has been reported for the following compound? CC(=O)Nc1nc2ccc(O)cc2s1
# output 46

# input What value of remaining activity at 100 µM has been reported for the following compound? CC(=O)Nc1nc2ccc([N+](=O)[O-])cc2s1
# output 85

---

assayedSystem: PKCγ (Homo sapiens)
testSummary: Kinase profiling PKCγ
Type: biochemical
particulars: 100 micromolar inhibitor concentration; 100 is no change
Entries and their measured residual kinase activity, PKCγ follow.
// response body must contain only the number

Recorded residual kinase activity, PKCγ, per entry:
[[record]]
compound = "O=C(Nc1nc2ccc(O)cc2s1)c1ccccn1 [Compound 03-12]"
testresult = 143

[[record]]
compound = "COc1ccc2sc(NC(=O)c3cccc(NC(C)=O)c3)nc2c1 [MS:LY-2-85]"
testresult = 80

[[record]]
compound = "CC(=O)Nc1ccc(C(=O)Nc2nc3cc(O)ccc3s2)cc1 [MS:LY-2-87]"
testresult = 74

[[record]]
compound = "CC(=O)Nc1cccc(C(=O)Nc2nc3cc(O)ccc3s2)c1 [MS:LY-2-89]"
testresult = 63

[[record]]
compound = "O=C(Nc1nc2cc(O)ccc2s1)c1ccncc1 [Compound 03-11]"
testresult = 101


Okay, now this compound:
# input What value of residual kinase activity, PKCγ has been reported for the following compound? O=C(Nc1nc2ccc(O)cc2s1)c1ccccc1 [Compound 03-60]
# output 83

The reported numbers originate from patent US10231954B2.
